molecular target: T1, Claudin 18.2 (CLDN18.2), expressed on CHOS-CLDN 18.2 / HEK293-CLDN 18.2 / HCC827-CLDN 18.2 cells (human, UniProt P56856-2 1-261); experiment: FACS, MFI on CHOS-CLDN18.2 over MFI on CHOS-CLDN18.1, 10 µg/ml
T1 construct: whole, on cells; The species is not repeated for the CHOS-CLDN 18.2 cells; also called claudin-18A2
property.measured: CLDN18.2/CLDN18.1 (MFI ratio)
Hey, just send me the number, nothing else.

Guide cases for CLDN18.2/CLDN18.1 (MFI ratio), answers given:
binder	CLDN18.2/CLDN18.1 (MFI ratio)
QP207208 (antibody, human IgG1, V domains shown, Chimeric; also called 51A3; mouse-derived chimeric antibody QP207208) VH: EVQLQQSGPELVKPGASVKMSCKASGYTFTSYIMHWVKQKPGQGLEWIGYINPYNDGTKYNEKFKGKATLTSDKSSSTVYMELSSLTSEDSAVYCCARLGFTTRNAMDYWGQGTSVTVSS VL: DIVMTQSPSSLSVSAGEKVTMNCKSSQSLLNSGNQKNYLAWYQQKPGQPPKLLIYGASTRESGVPDRFTGSGSGTDFTLTISSVQAEDLAVYYCQNDHSYPFTFGSGTKLEIK	476
QP14371435 (antibody, human IgG1, kappa, V domains shown, Humanized from QP190191) VH: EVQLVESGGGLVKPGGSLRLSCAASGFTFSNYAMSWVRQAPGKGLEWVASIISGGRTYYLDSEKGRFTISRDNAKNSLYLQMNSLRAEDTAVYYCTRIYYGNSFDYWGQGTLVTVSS VL: DIVMTQSPDSLAVSLGERATISCKSSQSLLNSGNQKNYLTWYQQKPGQPPKLLIYWASTRESGVPDRFTGSGSGTDFTLTISSLQAEDVAVYYCQNDYSYPFTFGQGTKLEIKR	497

Can you share its CLDN18.2/CLDN18.1 (MFI ratio)? I mean this binder: QP14651460 (antibody, human IgG1, kappa, V domains shown, Humanized from QP207208) VH: EVQLVQSGAEVKKPGASVKVSCKASGYTFTSYIMHWVRQAPGQGLEWIGYINPYNDGTKYNEKFKGRVTLTSDKSTSTVYMELSSLRSEDTAVYYCARLGFTTRNAMDYWGQGTLVTVSS VL: DIVMTQSPDSLAVSLGERATINCKSSQSLLNSGNQKNYLAWYQQKPGQPPKLLIYGASTRESGVPDRFSGSGSGTDFTLTISSLQAEDVAVYYCQNDHSYPFTFGQGTKLEIKR
596
